Value source: patent US4022903A

Tested on: Adult snails
assay_method_text: Molluscicide activity, adult snails
Format: in vivo
test_parameters: 10 ppm, 0/10-2/10 inactive, 3/10-7/10 partially active, 8/10-10/10 active
What Molluscicide, mortality, Adult was measured for each of the following?

// for each compound in input: emit Molluscicide, mortality, Adult
1. OC(c1ccc(Cl)cc1)(c1ccc(Cl)s1)C1CC1 (stereo not shown)
2. OC(c1ccc(Cl)cc1)(c1cccs1)C1CC1 (stereo not shown)
3. OC(c1ccc(C(F)(F)F)cc1)(c1ccc(Cl)s1)C1CC1 (stereo not shown)
4. Cc1ccc(C(O)(c2ccc(Cl)s2)C2CC2)cc1 (stereo not shown)
5. OC(c1ccc(C(F)(F)F)cc1)(c1cccs1)C1CC1 (stereo not shown)
6. OC(c1ccc(F)cc1)(c1ccc(Cl)s1)C1CC1 (stereo not shown)

Output line:
9/10
6/10
0/10
9/10
6/10
9/10

Input line: Given the entry OC(c1ccc(Br)cc1)(c1ccc(Cl)s1)C1CC1 (stereo not shown) , what Molluscicide, mortality, Adult was observed with Adult snails?
Output line: 9/10
